test system: S. aureus UC-76; experiment: Cross resistance antibacterial assay, microtitration MIC; assay type: cell-based; conditions: Staphylococcus aureus, UC76; typical sensitive laboratory strain (wild type); read-out: Minimum Inhibitory Concentrations S. aureus UC-76
Counter-ions that a name gives are not always drawn.
Test Readout: MIC (µg/mL)
Hi! Could you send only the number? It should be in µg/mL, unit omitted.

Answered cases to consult:
# Compound, MIC [µg/mL]
records = [
    ("Cl.Nn1c(=O)c2cc(F)c(N3CCC(CO)C3)c(Cl)c2n(C2CC2)c1=O (centres unmarked)", 1),
    ("CC1(CN)CCN(c2c(F)cc3c(=O)n(N)c(=O)n(C4CC4)c3c2Cl)C1 (centres unmarked) [Compound 3, hydrochloride]", 1),
    ("N[C@H]1CCN(c2cc3c(cc2F)c(=O)n(O)c(=O)n3C2CC2)C1 [reference compound]", 4),
    ("NCC1CCN(c2c(F)cc3c(=O)n(N)c(=O)n(C4CC4)c3c2Cl)C1 (centres unmarked) [Compound 1, hydrochloride]", 0.13),
]

Problem: Data request, read-out MIC, for N[C@@H]1[C@H]2CN(c3cc4c(cc3F)c(=O)n(O)c(=O)n4C3CC3)C[C@@H]12 [drawing 287, reference compound]
Solution: 4

###

test system: S. pyogenes C203; test: Antibacterial assay, microtitration MIC; type: cell-based; conditions: Streptococcus pyogenes, C203; Gram positive; read-out: Minimum Inhibitory Concentrations S. pyogenes C203
Test Readout: MIC (µg/mL)
Hi! Could you send only the number? It should be in µg/mL, unit omitted.

Answered cases to consult:
# Molecule, Reported
records = [
    ("O=c1c2cc(F)c(N3C[C@@H]4CCCN[C@@H]4C3)cc2n(C2CC2)c(=O)n1O [reference compound]", 32),
    ("Cl.Nn1c(=O)c2cc(F)c(N3CCC(CO)C3)c(Cl)c2n(C2CC2)c1=O (stereo not shown)", 8),
    ("Cl.N[C@@H]1CN(c2c(F)cc3c(=O)n(N)c(=O)n(C4CC4)c3c2Cl)CC12CC2", 4),
]

Now for another entry.
Problem: Data request, read-out MIC, for N[C@@H]1[C@H]2CN(c3cc4c(cc3F)c(=O)n(O)c(=O)n4C3CC3)C[C@@H]12 [drawing 284, reference compound]
Solution: 2

###

# MIC values compiled below
System: S. aureus 2558
Assay: Cross resistance antibacterial assay, microtitration MIC
Assay type: cell-based
Details: Staphylococcus aureus, 2558, read-out: Minimum Inhibitory Concentrations S. aureus 2558
Description: The compounds of the present invention are tested against an assortment of ciprofloxacin resistant E. coli and S. aureus organisms described below using standard microtitration techniques (Cohen, et al., Antimicrob. Agents Chemother., 1985; 28:766; Heifetz, et al., Antimicrob. Agents Chemother., 1974; 6:124).
Where a name gives a salt, the structure may show the parent alone.
Hi! Could you send only the number? It should be in µg/mL, unit omitted.

Problem: Data request, read-out MIC, for Cl.Nn1c(=O)c2cc(F)c(N3CCC(CO)C3)c(Cl)c2n(C2CC2)c1=O (centres unmarked)
Solution: 2

Problem: Data request, read-out MIC, for NCC1CCN(c2c(F)cc3c(=O)n(N)c(=O)n(C4CC4)c3c2Cl)C1 (centres unmarked) [Compound 1, hydrochloride]
Solution: 1

Problem: Data request, read-out MIC, for CC1(CN)CCN(c2c(F)cc3c(=O)n(N)c(=O)n(C4CC4)c3c2Cl)C1 (centres unmarked) [Compound 3, hydrochloride]
Solution: 4

###

molecular target: E. coli gyrase (Escherichia coli, UniProt P0AES4+P0AES6); construct: purchased Lucent, Ltd., Leicester, UK; assay: DNA gyrase supercoiling inhibition assay; type: biochemical; settings: supercoiling of relaxed pBR322, 30 minutes at 37° C.; read-out: E. coli gyrase IC50
Where a name gives a salt, the structure may show the parent alone.
# IC50 values compiled below
Hi! Could you send only the number? It should be in nM, unit omitted.

Answered cases to consult:
# Compound, IC50 / nM
data = [
    ("O=c1c2cc(F)c(N3C[C@@H]4CCCN[C@@H]4C3)cc2n(C2CC2)c(=O)n1O [reference compound]", 5000),
    ("N[C@@H]1[C@H]2CN(c3cc4c(cc3F)c(=O)n(O)c(=O)n4C3CC3)C[C@@H]12 [drawing 284, reference compound]", 900),
]

Problem: Data request, read-out IC50, for Nc1c(F)c(N2CC[C@H](N)C2)c(F)c2c1c(=O)n(N)c(=O)n2C1CC1 [Compound 11, hydrochloride]
Solution: 11000

###

# melting point values compiled below
Where a name gives a salt, the structure may show the parent alone.

Answered cases to consult:
# Compound, Reported
records = [
    ("COc1c(N2CCCC2)c(F)cc2c(=O)n(N)c(=O)n(C3CC3)c12.Cl", "92 to 94 °C"),
    ("Cc1c(N2CCC(C(C)(C)O)C2)c(F)cc2c(=O)n(N)c(=O)n(C3CC3)c12.Cl (stereo not drawn)", "116 to 120 °C"),
    ("CN[C@H]1CCN(c2c(F)cc3c(=O)n(N)c(=O)n(C4CC4)c3c2Cl)C1 (as salt: hydrochloride)", "118 to 120 °C"),
    ("Cl.Nn1c(=O)c2cc(F)c(N3CCC(CO)C3)c(Cl)c2n(C2CC2)c1=O (stereo not drawn)", "78 to 80 °C"),
    ("NC1C2CN(c3c(F)cc4c(=O)n(N)c(=O)n(C5CC5)c4c3Cl)CC12 (stereo not drawn) (as salt: hydrochloride)", "111 to 114 °C"),
]

Problem: Data request, read-out melting point, for Cl.Nn1c(=O)c2cc(F)c(N3CC4CCNCC4C3)nc2n(C2CC2)c1=O (stereo not drawn)
Solution: 200 to 203 °C

Problem: Data request, read-out melting point, for COc1c(N2CC3CC3(CN)C2)c(F)cc2c(=O)n(N)c(=O)n(C3CC3)c12.Cl (stereo not drawn)
Solution: 183 to 185 °C

Problem: Data request, read-out melting point, for COc1c(N2CCC(N)C2)c(F)cc2c(=O)n(N)c(=O)n(C3CC3)c12.Cl (stereo not drawn)
Solution: 216 to 218 °C

Problem: Data request, read-out melting point, for COc1c(N2CCCC(C(C)N)C2)c(F)cc2c(=O)n(N)c(=O)n(C3CC3)c12.Cl (stereo not drawn)
Solution: 198 °C

###

Test Readout: melting point

Answered cases to consult:
# Molecule, Reported
records = [
    ("Cc1c(N2C[C@@H](CN)[C@H](C)C2)c(F)cc2c(=O)n(N)c(=O)n(C3CC3)c12.Cl (relative stereo)", "220 °C"),
    ("Cc1c(N2CC(C(C)N)C3(CC3)C2)c(F)cc2c(=O)n(N)c(=O)n(C3CC3)c12.Cl (centres unmarked)", "178 to 180 °C"),
    ("COc1c(N2CCC(CN)C2)c(F)cc2c(=O)n(N)c(=O)n(C3CC3)c12.Cl (centres unmarked)", "180 to 182 °C"),
    ("COc1c(N2CCC(C(C)(C)O)C2)c(F)cc2c(=O)n(N)c(=O)n(C3CC3)c12.Cl (centres unmarked)", "134 °C (dec.)"),
    ("Cl.N[C@@H]1CN(c2c(F)cc3c(=O)n(N)c(=O)n(C4CC4)c3c2Cl)C[C@H]1c1ccccc1 (relative stereo)", "174 to 175 °C"),
    ("Cc1c(N2CC3CCCCC3(CN)C2)c(F)cc2c(=O)n(N)c(=O)n(C3CC3)c12.Cl (centres unmarked)", "> 250 °C"),
]

Problem: Data request, read-out melting point, for COc1c(N2CC3C(N)CC3(C)C2)c(F)cc2c(=O)n(N)c(=O)n(C3CC3)c12.Cl (centres unmarked)
Solution: > 190 °C

Problem: Data request, read-out melting point, for Cl.N#Cc1c(N2CCC(N)C2)c(F)cc2c(=O)n(N)c(=O)n(C3CC3)c12 (centres unmarked)
Solution: 277 °C

###

test system: E. coli B90; experiment: Antibacterial assay, microtitration MIC; format: cell-based; settings: Escherichia coli, B90; Gram negative; read-out: Minimum Inhibitory Concentrations E. coli B90
Test Readout: MIC (µg/mL)
Hi! Could you send only the number? It should be in µg/mL, unit omitted.

Answered cases to consult:
# Molecule, Reported
records = [
    ("Cl.Nn1c(=O)c2cc(F)c(N3CCC(CO)C3)c(Cl)c2n(C2CC2)c1=O (stereo not shown) [Compound 12]", 0.25),
    ("O=c1c2cc(F)c(N3C[C@@H]4CCCN[C@@H]4C3)cc2n(C2CC2)c(=O)n1O [reference compound]", 2),
    ("Cl.N[C@@H]1CN(c2c(F)cc3c(=O)n(N)c(=O)n(C4CC4)c3c2Cl)CC12CC2 [Compound 14]", 0.25),
]

Now for another entry.
Problem: Data request, read-out MIC, for N[C@@H]1[C@H]2CN(c3cc4c(cc3F)c(=O)n(O)c(=O)n4C3CC3)C[C@@H]12 [drawing 284, reference compound]
Solution: 0.25
